tested on: U251 CNS; test: NCI-60 one-dose screen, 48 h (100 = growth as untreated, 0 = no growth, -100 = all killed); settings: 10 µM unless noted
This is part of a sample that, as a whole, favours compounds with a hit. Of some 83,000 tested, about 20% had one in any assay.
Consider the following compounds; for each one, report its growth.
Just the number please, in %, no unit attached.

Challenge: # lookup: growth of "CCn1c(SCC(=O)N/N=C(\C)c2ccc(Cl)cc2)nc2c1c(=O)n(C)c(=O)n2C"
Response given: 104

Challenge: # lookup: growth of CCOC(=O)C1=C(C)NC(=O)NC1c1c(Cl)n(CCCl)c2ccccc12 (stereo not given)
Response given: 94.4

Challenge: # lookup: growth of "COC(=O)CC[C@@H]1O[C@@H](c2cccc(C(F)(F)F)c2)[C@@H](O)[C@H]1O"
Response given: 102

Challenge: # lookup: growth of "Nc1[nH]n2cc(-c3ccccc3)nc2c1N=Nc1ccc(S(N)(=O)=O)cc1"
Response given: 38.7

Challenge: # lookup: growth of "O=C(CSc1nnc(-c2cnccn2)n1-c1ccccc1)c1ccc(Cl)cc1"
Response given: 93.7

Challenge: # lookup: growth of "COc1cc2ncnc(Nc3ccc(F)c(Cl)c3)c2cc1OCC(=O)N1CCN(c2ccccc2)CC1"
Response given: 98.9

Challenge: # lookup: growth of "O=S(=O)(Nc1ccc(Cl)c(C(F)(F)F)c1)c1ccc(-c2cnc(C3CC3)o2)cc1"
Response given: 4.81

Challenge: # lookup: growth of "CSc1nnc(-c2cc3c([nH]c4ccccc43)c(-c3cccc(O)c3)n2)n1-c1ccccc1"
Response given: 32.3

Challenge: # lookup: growth of "C=C(CBr)[C@@H]1CC[C@]2(C(=O)O)CC[C@]3(C)[C@H](CC[C@@H]4[C@@]5(C)CCC(=O)C(C)(C)[C@@H]5CC[C@]43C)[C@@H]12"
Response given: 70.9

Challenge: # lookup: growth of "O=C(Nc1ccc(Oc2cccc(Cl)c2)c(Cl)c1)c1cccnc1"
Response given: 23.9

Entry source: PubChem BioAssay (NCI)
